Sourced from ChEMBL document CHEMBL6083197

target: UniProtKB P27487; experiment: Inhibition of recombinant human DPP-4 using Gly-Pro-AMC as substrate by fluorometric assay
pIC50: −log10 of the molar value.

compound | pIC50
O=C(SC1=NC(c2ccc(Cl)cc2)=CC(c2ccc([N+](=O)[O-])cc2)N1)c1ccccc1CN1C(=O)c2ccccc2C1=O (stereo unspecified) | 9.29

* * *

biological target: Dipeptidyl peptidase 4 (Homo sapiens); test: Inhibition of DPP-4 (unknown origin)
Sequence (P27487 whole entry): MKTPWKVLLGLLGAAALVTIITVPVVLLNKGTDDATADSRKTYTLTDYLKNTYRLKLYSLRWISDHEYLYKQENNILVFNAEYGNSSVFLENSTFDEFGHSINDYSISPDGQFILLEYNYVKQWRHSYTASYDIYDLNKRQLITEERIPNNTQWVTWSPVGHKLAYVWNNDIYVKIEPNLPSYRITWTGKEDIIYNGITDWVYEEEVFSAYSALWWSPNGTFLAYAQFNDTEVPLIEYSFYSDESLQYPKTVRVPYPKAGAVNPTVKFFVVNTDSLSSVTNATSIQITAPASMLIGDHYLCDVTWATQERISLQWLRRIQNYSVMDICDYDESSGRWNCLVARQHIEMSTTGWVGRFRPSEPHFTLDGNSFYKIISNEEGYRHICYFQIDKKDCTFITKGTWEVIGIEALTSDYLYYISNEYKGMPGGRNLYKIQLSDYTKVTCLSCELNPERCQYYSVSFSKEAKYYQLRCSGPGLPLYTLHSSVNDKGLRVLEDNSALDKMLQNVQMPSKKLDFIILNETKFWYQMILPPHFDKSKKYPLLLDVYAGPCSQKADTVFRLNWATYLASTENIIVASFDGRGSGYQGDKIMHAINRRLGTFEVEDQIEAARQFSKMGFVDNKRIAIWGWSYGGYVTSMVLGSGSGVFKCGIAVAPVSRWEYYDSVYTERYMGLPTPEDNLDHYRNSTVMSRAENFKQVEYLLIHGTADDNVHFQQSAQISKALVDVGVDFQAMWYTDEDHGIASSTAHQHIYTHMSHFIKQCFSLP
pIC50: −log10 of the molar value.

molecule | pIC50
Nc1nc(NC2=NC(c3ccccc3)=CC(c3cccc([N+](=O)[O-])c3)N2)nc(N2CCOCC2)n1 (stereo unspecified) | 8.54
